target: human norepinephrine transporter (hNET) (Homo sapiens, UniProt P23975)
Sequence (P23975 whole entry): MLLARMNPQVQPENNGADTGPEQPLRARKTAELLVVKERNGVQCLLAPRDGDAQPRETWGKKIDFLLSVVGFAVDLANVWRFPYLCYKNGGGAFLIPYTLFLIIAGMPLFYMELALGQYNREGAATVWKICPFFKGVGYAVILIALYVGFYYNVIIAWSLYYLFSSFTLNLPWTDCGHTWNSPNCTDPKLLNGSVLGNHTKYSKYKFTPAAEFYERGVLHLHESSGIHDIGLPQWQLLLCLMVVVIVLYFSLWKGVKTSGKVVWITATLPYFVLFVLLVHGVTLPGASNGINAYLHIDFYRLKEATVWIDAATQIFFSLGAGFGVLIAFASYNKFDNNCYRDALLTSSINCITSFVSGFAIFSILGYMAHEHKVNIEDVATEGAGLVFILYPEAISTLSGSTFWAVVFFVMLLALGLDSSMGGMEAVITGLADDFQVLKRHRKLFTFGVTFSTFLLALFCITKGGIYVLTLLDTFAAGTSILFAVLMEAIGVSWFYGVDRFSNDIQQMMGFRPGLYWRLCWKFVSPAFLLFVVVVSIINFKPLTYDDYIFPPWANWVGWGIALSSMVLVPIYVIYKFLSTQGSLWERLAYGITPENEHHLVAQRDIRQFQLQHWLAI
Counter-ions that a name gives are not always drawn.
Quantity Name: Ki (nM)

Some compounds with known Ki results, for comparison:
{"Compound": "Fc1ccc2c(c1)c(OCC1CCCNC1)nn2-c1ccccc1F (racemic) [Example 57, hydrochloride]", "Unit Of Measurement": "nM", "Ki": 18.1}
{"Compound": "Fc1cc2c(OC3CCNCC3)nn(-c3ccccc3F)c2cc1F [Example 75, hydrochloride]", "Unit Of Measurement": "nM", "Ki": 36.4}
{"Compound": "Fc1cc2c(OCC3CCCNC3)nn(-c3ccccc3F)c2cc1F (centres unmarked) [Example 76, hydrochloride]", "Unit Of Measurement": "nM", "Ki": 40.4}
{"Compound": "Clc1ccc2c(c1)c(OCC1CCCNC1)nn2-c1ccccc1 (racemic) [Example 69, hydrochloride]", "Unit Of Measurement": "nM", "Ki": 98}
{"Compound": "Fc1ccc(-n2nc(OC[C@@H]3CNCCO3)c3c(F)cccc32)c(F)c1 [Example 94, hydrochloride]", "Unit Of Measurement": "nM", "Ki": 40.2}
{"Compound": "Fc1ccc(F)c(-n2nc(OC[C@@H]3CCNC3)c3c(F)cccc32)c1 [Example 93, hydrochloride]", "Unit Of Measurement": "nM", "Ki": 16.4}
{"Compound": "Fc1ccccc1-n1nc(OC2CCNCC2)c2cccc(C(F)(F)F)c21 [Example 65, hydrochloride]", "Unit Of Measurement": "nM", "Ki": 4330}
{"Compound": "c1ccc(-n2nc(OC[C@@H]3CCNC3)c3ccccc32)cc1 [Example 14, hydrochloride]", "Unit Of Measurement": "nM", "Ki": 13.1}
{"Compound": "Fc1ccc2c(c1)c(OC1CCNCC1)nn2-c1c(F)cccc1F [Example 108, hydrochloride]", "Unit Of Measurement": "nM", "Ki": 5.72}
{"Compound": "c1ccc(-n2nc(OC[C@@H]3CNCCO3)c3ccccc32)cc1 [Example 21, hydrochloride]", "Unit Of Measurement": "nM", "Ki": 12.5}

a = Fc1ccc(F)c(-n2nc(OC3CCNCC3)c3c(F)cccc32)c1 [Example 90, hydrochloride]
b = Fc1ccc(F)c(-n2nc(OC[C@@H]3CNCCO3)c3cc(F)ccc32)c1 [Example 26, maleate]
c = Fc1cc2c(OCC3CCCNC3)nn(-c3ccccc3)c2cc1F (centres unmarked) [Example 86, hydrochloride]
input: Arrange these 3 compounds in increasing order of Ki. Write the labels out in the order the request specifies.
output: b, a, c

a = Fc1ccc2c(c1)c(OC1CCNCC1)nn2-c1ccccc1F [Example 51, hydrochloride]
b = Fc1cc2c(OC3CCNCC3)nn(-c3ccccc3)c2cc1F [Example 87, hydrochloride]
c = Fc1ccc(-n2nc(OC3CCNCC3)c3c(F)cccc32)cc1 [Example 83, hydrochloride]
d = Fc1ccc(-n2nc(OC[C@H]3CCNC3)c3ccccc32)c(F)c1 [Example 8, hydrochloride]
input: Arrange the 4 compounds from largest to smallest Ki. Please express your ranking as an ordered list of the labels.
output: b, c, a, d
(b: 197 nM, c: 49.3 nM, a: 11.9 nM, d: 5.19 nM)

* * *

Counter-ions that a name gives are not always drawn.
For human serotonin transporter (hSERT) (Homo sapiens, UniProt P31645), measured Ki is reported for the entries below.
Quantity Name: Ki (nM)

// known answers, use as guide
{"Molecule": "Fc1cccc(-n2nc(OC3CCNCC3)c3c(F)cccc32)c1 [Example 81, hydrochloride]", "Ki, nM": 449}
{"Molecule": "Fc1cc2c(OCC3CCCNC3)nn(-c3ccccc3)c2cc1F (centres unmarked) [Example 86, hydrochloride]", "Ki, nM": 101}
{"Molecule": "Fc1ccc(F)c(-n2nc(OC[C@@H]3CNCCO3)c3c(F)cccc32)c1 [Example 95, hydrochloride]", "Ki, nM": 3470}

A = c1ccc(-n2nc(OC[C@H]3CCCNC3)c3ccccc32)nc1 [Example 44, maleate]
B = Fc1ccc(-n2nc(OC[C@@H]3CNCCO3)c3c(F)cccc32)c(F)c1 [Example 94, hydrochloride]
input: Please indicate which item has the smaller measured Ki: A versus B Identify your selection by its label.
output: A
(A: 365 nM, B: 2850 nM)
